# Experiment Summary: NCI Yeast Anticancer Drug Screen. Data for the mec2-1 strain (AID 157)
# Measurement Context: S. cerevisiae mec2-1 strain, at 33.0 µM, stronger effect = higher value
This is part of a sample that, as a whole, favours compounds with a hit. Of some 79,000 tested, about 15% had one in any assay.

Compound: CCCCCCCCCCCC(=O)N(C)C
growth inhibition / %: 34
--
Compound: Cc1ccc(CSC(N)=Nc2ccccc2)cc1C
growth inhibition / %: 1
--
Compound: C=C1CC(Cn2cc(Br)c(=O)[nH]c2=O)(c2ccc(-c3ccccc3)cc2)OC1=O (stereo unspecified)
growth inhibition / %: 57
--
Compound: CN(Cc1cnc2nc(N)nc(N)c2n1)c1ccc(C(=O)N[C@@H](CCC(=O)O)C(=O)O)cc1
growth inhibition / %: 88
--
Compound: O=C(NCCCNCCCNC(=O)c1cc(-c2ccccc2)nc2ccccc12)c1cc(-c2ccccc2)nc2ccccc12
growth inhibition / %: 10
--
Compound: O=C(Nc1ccc(Cl)cc1)OCC#CCCl
growth inhibition / %: 2
--
Compound: COc1ccc(O)c(/C=N\Nc2ccccc2)c1
growth inhibition / %: -5
--
Compound: CCC#CCCCOC(=O)c1cc([N+](=O)[O-])cc([N+](=O)[O-])c1
growth inhibition / %: 83
--
Compound: C(CCSC1=NCCN1)CSC1=NCCN1 (tested in a mixture with another compound)
growth inhibition / %: 99
--
Compound: COc1ccc(/C=C/C(=O)C(C)(C)Br)cc1
growth inhibition / %: 97
--
Compound: CC(C)C1=CC2=C[C@H](O)[C@H]3C(C)(C)CCC[C@]3(C)C2=C(O)C1=O
growth inhibition / %: 99
--
Compound: CC(=O)Oc1ccc2c(c1)Cc1cc(N=C3C=CC(=O)O3)ccc1-2
growth inhibition / %: 99
--
Compound: Nc1nc(-c2cccnc2)cc(-c2cc(-c3cccnc3)nc(N)n2)n1
growth inhibition / %: 0
--
Compound: Cn1c(=O)c2ccccc2c2ccccc21
growth inhibition / %: 26
--
Compound: COC(=O)CCNc1c2ccccc2nc2cccc([N+](=O)[O-])c12
growth inhibition / %: 98
--
Compound: O=C1Nc2ccccc2/C1=C/COc1ccccc1
growth inhibition / %: 97
--
Compound: c1ccc2c(c1)sc1cc3ccncc3cc12
growth inhibition / %: 8
--
Compound: O=C1c2cc([N+](=O)[O-])ccc2-c2cccc(F)c21
growth inhibition / %: 23
--
Compound: CC(=O)Oc1cc(-c2cc(OC(C)=O)c(OC(C)=O)c3ccccc23)c2ccccc2c1OC(C)=O
growth inhibition / %: 24
--
Compound: CCOC(=O)C1=C(C(=O)c2ccccc2)C(c2ccccc2[N+](=O)[O-])C(C(=O)c2ccccc2)=C(C(=O)OCC)N1
growth inhibition / %: -1
--
Compound: CN(C)CCn1c2c3ccccc3ccc2c2oc(=O)c3ccccc3c21
growth inhibition / %: 95
--
Compound: CC(=O)SCCC[Si](C)(C)CCCSC(C)=O
growth inhibition / %: 3
--
Compound: CC(=O)OCc1ccc(O)c(C=O)c1
growth inhibition / %: -11
--
Compound: COc1ccc(-c2cn(-c3ccc(I)cc3)c3ncnc(N)c23)cc1
growth inhibition / %: 0
--
Compound: CC/C(=C(\c1ccccc1)c1ccc(OCCN(C)C)cc1)c1ccccc1
growth inhibition / %: 98
--
Compound: c1ccc2c(c1)Oc1cccc3cccc-2c13
growth inhibition / %: 2
--
Compound: CCCCCCCCCC/C=C\C(=O)O
growth inhibition / %: 49
--
Compound: O=C(c1ccc(Cl)cc1)C1OC12C(=O)Nc1ccccc12 (stereo unspecified)
growth inhibition / %: 99
--
Compound: CCOP(=O)(OCC)C(Cc1ccccc1)N=C(c1ccccc1)c1ccccc1 (stereo unspecified)
growth inhibition / %: 97
--
Compound: CC1(C)[C@@H]2CC[C@]1(C)[C@H](OC(=O)CSC#N)C2
growth inhibition / %: 86
--
Compound: S=C(S)NN1CCOCC1
growth inhibition / %: 28
--
Compound: O=C1C=CC(=Nc2ccc3c(c2)Cc2cc(NC(=O)C(F)(F)F)ccc2-3)O1
growth inhibition / %: 48
--
Compound: CN(C)c1ccc(Sc2ccc3nc(N)nc(N)c3c2)cc1
growth inhibition / %: 13
--
Compound: Cc1cc(N=Nc2ccc(S(=O)(=O)[O-])cc2)cc(C(=O)[O-])c1[O-].NC1CCCCC1N.[Na+].[Pt+4]
growth inhibition / %: 99
--
Compound: COC(=O)CSSCc1ccc([N+](=O)[O-])cc1
growth inhibition / %: 37
--
Compound: Cc1ccc(NN(NC(=O)OC(C)C)C(=O)OC(C)C)cc1
growth inhibition / %: 13
--
Compound: O=[N+]([O-])CC(SCc1ccccc1)c1ccc2c(c1)OCO2 (stereo unspecified)
growth inhibition / %: 98
--
Compound: Cc1cc(CO)c(O)c(CNCc2cc(C)cc(CO)c2O)c1
growth inhibition / %: -18
--
Compound: C=CC(C)(O)CCC1C(=C)C(O)CC2C(C)(C)CCCC12C (stereo unspecified)
growth inhibition / %: 4
--
Compound: CC1C(NNc2ccccc2)Oc2cc3c(cc2C1c1ccccc1O)OCO3 (stereo unspecified)
growth inhibition / %: 94
--
Compound: O=C1C=CC(=O)N1c1ccc2c(c1)Cc1cc(NC(=O)C(F)(F)F)ccc1-2
growth inhibition / %: 62
--
Compound: Cc1ccc(N)c(S)c1
growth inhibition / %: 96
--
Compound: CCN(CC)CCNc1ccc([N+](=O)[O-])c2nc3ccc(OC)cc3c(N)c12
growth inhibition / %: 5
--
Compound: N#Cc1c(N)[nH]c2ccc(Sc3ccccc3)cc12
growth inhibition / %: 93
--
Compound: OC1CSCCCSCCSCCCSC1
growth inhibition / %: 4
--
Compound: CCOC(=O)c1cnc2cc(C(F)(F)F)ccc2c1N=[N+]=[N-]
growth inhibition / %: 56

Numbers sourced from PubChem BioAssay (NCI).
